Each item that follows carries a reported pEC50.
system: Hepatitis C virus; test: Antiviral activity against Hepatitis C virus genotype 2a J6 infected in human HuH7 cells by FRET assay; format: functional, organism-based, Hepacivirus hominis; details: subtype 2a J6, Huh-7
pEC50: −log10 of the molar value.
readout-type: pEC50

[[record]]
smiles_data = "COC(=O)N[C@@H](C(=O)N1CCC[C@H]1c1ncc(-c2ccc(-c3ccc(-c4cnc([C@@H]5CCCN5C(=O)[C@H](NC(=O)OC)c5ccccc5)[nH]4)cc3)cc2)[nH]1)c1ccccc1"
numeric_result = 10.64

[[record]]
smiles_data = "CN(C)[C@@H](C(=O)N1CCC[C@H]1c1ncc(-c2ccc(-c3ccc(-c4cnc([C@@H]5CCCN5C(=O)[C@@H](c5ccccc5)N(C)C)[nH]4)cc3)cc2)[nH]1)c1ccccc1"
numeric_result = 10.49


* * *

test: Cytotoxicity against human HuH7 cells infected with HCV genotype 1b after 72 hrs by Alamar blue assay; format: cell-based, Huh-7
readout-type: CC50 at 72 h

[[record]]
compound = "CN(C)[C@@H](C(=O)N1CCC[C@H]1c1nc2cc(-c3cnc(-c4ccc5[nH]c([C@@H]6CCCN6C(=O)[C@@H](c6ccccc6)N(C)C)nc5c4)o3)ccc2[nH]1)c1ccccc1"
result = "> 10 µM"

[[record]]
compound = "CN(C)C(C(=O)N1CCC[C@H]1C(=O)Nc1ccc(-c2ncc(-c3ccc4[nH]c([C@@H]5CCCN5C(=O)[C@@H](c5ccccc5)N(C)C)nc4c3)o2)cc1)c1ccccc1 (single isomer, unassigned)"
result = "> 10 µM"

[[record]]
compound = "COC(=O)N[C@@H](C(=O)N1CCC[C@H]1c1ncc(-c2ccc(-c3ccc(-c4cnc([C@@H]5CCCN5C(=O)Cc5ccccc5)[nH]4)cc3)cc2)[nH]1)c1ccccc1"
result = "> 10 µM"

[[record]]
compound = "CN(C)[C@@H](C(=O)N1CCC[C@H]1C(=O)Nc1ccc(-c2cnc(-c3cccc(NC(=O)[C@@H]4CCCN4C(=O)[C@@H](c4ccccc4)N(C)C)c3)o2)cc1)c1ccccc1"
result = "5.76 µM"

[[record]]
compound = "O=C(Cc1ccccc1)N1CCC[C@H]1c1nc2cc(C#Cc3ccc4nc([C@@H]5CCCN5C(=O)Cc5ccccc5)[nH]c4c3)ccc2[nH]1"
result = "> 10 µM"

[[record]]
compound = "CN(C)[C@@H](C(=O)N1CCC[C@H]1C(=O)Nc1cccc(-c2ncc(-c3ccc4nc([C@@H]5CCCN5C(=O)[C@@H](c5ccccc5)N(C)C)[nH]c4c3)o2)c1)c1ccccc1"
result = "8.61 µM"

[[record]]
compound = "O=C(Cc1ccccc1)N1CCC[C@H]1c1nc2ccc(C#Cc3ccc4nc([C@@H]5CCCN5C(=O)Cc5ccccc5)oc4c3)cc2o1"
result = "> 10 µM"

[[record]]
compound = "O=C(Nc1ccc(C#Cc2ccc(NC(=O)[C@@H]3CCCN3C(=O)Cc3ccccc3)cc2)cc1)[C@@H]1CCCN1C(=O)Cc1ccccc1"
result = "> 10 µM"

[[record]]
compound = "COC(=O)N[C@@H](C(=O)N1CCC[C@H]1c1nc2cc(C#Cc3ccc4[nH]c([C@@H]5CCCN5C(=O)[C@H](NC(=O)OC)c5ccccc5)nc4c3)ccc2[nH]1)c1ccccc1"
result = "> 10 µM"

[[record]]
compound = "CN(C)[C@H](C(=O)N1CCC[C@H]1c1ncc(-c2ccc(-c3ccc(-c4cnc([C@@H]5CCCN5C(=O)[C@H](c5ccccc5)N(C)C)[nH]4)cc3)cc2)[nH]1)c1ccccc1"
result = "3.61 µM"

[[record]]
compound = "CC(C)(C)OC(=O)N1CCC[C@H]1c1ncc(-c2ccc(-c3ccc(-c4cnc([C@@H]5CCCN5C(=O)OC(C)(C)C)[nH]4)cc3)cc2)[nH]1"
result = "9.63 µM"

